Substrate: O=C(O)C(=O)CC(O)C(=O)O
ASSAY_NAME: purified protein
Assay type: biochemical, Homo sapiens
EXPERIMENTAL_CONDITIONS: racemic HOG, 100 mM TRIS pH 8.5, 37°C, aldol cleavage

PROTEIN	kcat / s⁻¹
human HOGA (hHOGA) (Homo sapiens; S77T) (protein, His-tag (WT, Y140F) cleavable by PreScission leaving GPH, 33,097 Da tag-free; S77, N78 and S198 mutants as MBP fusion, MBP cleaved; tetramer) ASGEGKKVDIAGIYPPVTTPFTATAEVDYGKLEENLHKLGTFPFRGFVVQGTNGEFPFLTSSERLEVVSRVRQAMPKNRLLLAGSGCESTQATVEMTVSMAQVGADAAMVVTPCYYRGRMSSAALIHHYTKVADLSPIPVVLYSVPANTGLDLPVDAVVTLSQHPNIVGMKDSGGDVTRIGLIVHKTRKQDFQVLAGSAGFLMASYALGAVGGVCALANVLGAQVCQLERLCCTGQWEDAQKLQHRLIEPNAAVTRRFGIPGLKKIMDWFGYYGGPCRAPLQELSPAEEEALRMDFTSNGWL	0.8
human HOGA (hHOGA) (Homo sapiens; N78A) (protein, His-tag (WT, Y140F) cleavable by PreScission leaving GPH, 33,097 Da tag-free; S77, N78 and S198 mutants as MBP fusion, MBP cleaved; tetramer) ASGEGKKVDIAGIYPPVTTPFTATAEVDYGKLEENLHKLGTFPFRGFVVQGSAGEFPFLTSSERLEVVSRVRQAMPKNRLLLAGSGCESTQATVEMTVSMAQVGADAAMVVTPCYYRGRMSSAALIHHYTKVADLSPIPVVLYSVPANTGLDLPVDAVVTLSQHPNIVGMKDSGGDVTRIGLIVHKTRKQDFQVLAGSAGFLMASYALGAVGGVCALANVLGAQVCQLERLCCTGQWEDAQKLQHRLIEPNAAVTRRFGIPGLKKIMDWFGYYGGPCRAPLQELSPAEEEALRMDFTSNGWL	7.6
